molecular target: Avi-KRAS WT (2-169) GTP/RAF1 RBD-3xFLAG (51-131) (Homo sapiens, UniProt P01116); construct: Avi-KRAS WT (2-169); assay: Raf1-KRAS WT-GTP disruption HTRF assay (Biological Example 3); assay type: binding; conditions: KRAS WT, GTP-loaded
Sequence (P01116 2-169 isoform P01116-2): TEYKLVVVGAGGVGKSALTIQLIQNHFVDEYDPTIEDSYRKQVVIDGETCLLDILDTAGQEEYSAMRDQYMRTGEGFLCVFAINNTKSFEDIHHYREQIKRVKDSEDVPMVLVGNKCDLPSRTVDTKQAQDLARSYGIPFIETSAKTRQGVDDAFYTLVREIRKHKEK
pIC50: −log10 of the molar value.
Measurement kind: pIC50

- Molecule: "CCN(c1nc(OC[C@@]23CCCN2C[C@H](F)C3)nc2c(F)c(-c3ccc(F)c4sc(N)c(C#N)c34)c(C(F)(F)F)cc12)[C@H]1CCN(C(=O)c2coc(C)n2)[C@@H]1C (atropisomer, axis not shown)"
  pIC50: "6.00 to 7.00"
- Molecule: "CN(Cc1ccnnc1)c1nc(OC[C@@]23CCCN2C[C@H](F)C3)nc2c(F)c(-c3ccc(F)c4sc(N)c(C#N)c34)c(C(F)(F)F)cc12 (atropisomer, axis not shown)"
  pIC50: "5.00 to 6.00"
- Molecule: "CN(CC1COC1)c1nc(OC[C@@]23CCCN2C[C@H](F)C3)nc2c(F)c(-c3ccc(F)c4sc(N)c(C#N)c34)c(C(F)(F)F)cc12 (atropisomer, axis not shown)"
  pIC50: "5.00 to 6.00"
- Molecule: "CCN(c1nc(OC[C@@]23CCCN2C[C@H](F)C3)nc2c(F)c(-c3ccc(F)c4sc(N)c(C#N)c34)c(C(F)(F)F)cc12)[C@@H]1CCN(c2ccccn2)C1"
  pIC50: "< 5.00"
- Molecule: "CCN(c1nc(OC[C@@]23CCCN2C[C@H](F)C3)nc2c(F)c(-c3ccc(F)c4sc(N)c(C#N)c34)c(C(F)(F)F)cc12)[C@@H]1CCN(C(=O)C(C)C)C1"
  pIC50: "6.00 to 7.00"

// Input: "CCN(c1nc(OC[C@@]23CCCN2C[C@H](F)C3)nc2c(F)c(-c3ccc(F)c4sc(N)c(C#N)c34)c(C(F)(F)F)cc12)[C@@H]1C[C@@H]2CCC(=O)N2C1" . Output its pIC50 only.
6.00 to 7.00

Given the molecule C[C@H]1Cn2nc(C(=O)N(C)C)cc2CN1c1nc(OC[C@@]23CCCN2C[C@H](F)C3)nc2c(F)c(-c3ccc(F)c4sc(N)c(C#N)c34)c(C(F)(F)F)cc12 (atropisomer, axis not shown) , write its reported pIC50.
5.00 to 6.00

Give the measured pIC50 for CCN(c1nc(OC[C@@]23CCCN2C[C@H](F)C3)nc2c(F)c(-c3ccc(F)c4sc(N)c(C#N)c34)c(C(F)(F)F)cc12)[C@H]1CCN(C(=O)[C@@H]2CCO2)C1 (atropisomer, axis not shown)
6.00 to 7.00

Provide one value: measured pIC50 of CCN(c1nc(OC[C@@]23CCCN2C[C@H](F)C3)nc2c(F)c(-c3ccc(F)c4sc(N)c(C#N)c34)c(C(F)(F)F)cc12)[C@H]1C[C@H](COC)N(C(=O)[C@@H]2CCO2)C1 (atropisomer, axis not shown)
6.00 to 7.00

* * *

A collection of compounds and their measured pIC50
system: GP2d cells (KRAS G12D); assay: Cell-based pERK HTRF assay in GP2d cell (Biological Example 2); conditions: GP2d, GP2d (KRAS G12D) cells, pERK HTRF; class symbols
pIC50: −log10 of the molar value.

- Compound: "CCN(c1nc(OC[C@@]23CCCN2C[C@H](F)C3)nc2c(F)c(-c3ccc(F)c4sc(N)c(C#N)c34)c(C(F)(F)F)cc12)[C@H]1CCN(C(=O)[C@@H]2C[C@H]2C)C1 (atropisomer, axis not shown)"
  Result: "> 7.00"
- Compound: "CCN(c1nc(OC[C@@]23CCCN2C[C@H](F)C3)nc2c(F)c(-c3ccc(F)c4sc(N)c(C#N)c34)c(C(F)(F)F)cc12)[C@H]1C[C@H](C)N(C(=O)OC)C1 (atropisomer, axis not shown)"
  Result: "> 7.00"
- Compound: "CCN(c1nc(OC[C@@]23CCCN2C[C@H](F)C3)nc2c(F)c(-c3ccc(F)c4sc(N)c(C#N)c34)c(C(F)(F)F)cc12)[C@H]1C[C@H](C)N(C(=O)[C@@H](C)OC)C1 (atropisomer, axis not shown)"
  Result: "> 7.00"

Fill in: pIC50 on GP2d cells (KRAS G12D), entry N#Cc1c(N)sc2c(F)ccc(-c3c(C(F)(F)F)cc4c(N5CCn6nc(C(=O)N7CCOCC7)cc6C5)nc(OCC56CCCN5CC(F)C6)nc4c3F)c12 (centres unmarked)
> 7.00

Provide GP2d cells (KRAS G12D) pIC50 reading for CCN(c1nc(OC[C@@]23CCCN2C[C@H](F)C3)nc2c(F)c(-c3ccc(F)c4sc(N)c(C#N)c34)c(C(F)(F)F)cc12)[C@@H]1C[C@H](C)N(C(=O)C2CC2)C1 (atropisomer, axis not shown) .
> 7.00

* * *

target: Avi-KRAS G12D (1-169) GppNHp/RAF1 RBD-3xFLAG (52-151) (Homo sapiens, UniProt P01116, G12D); construct: Avi-KRAS G12D (1-169); assay: Raf1-KRAS G12D-GppNHP disruption HTRF assay (Biological Example 1); type: binding; conditions: KRAS G12D, GppNHp-loaded; Table 11
Sequence (P01116 1-169 isoform P01116-2 G12D): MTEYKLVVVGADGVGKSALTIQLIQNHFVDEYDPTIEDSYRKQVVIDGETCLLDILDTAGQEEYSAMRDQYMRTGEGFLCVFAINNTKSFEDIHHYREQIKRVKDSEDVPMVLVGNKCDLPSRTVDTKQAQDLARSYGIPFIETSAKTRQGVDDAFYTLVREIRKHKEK
pIC50: −log10 of the molar value.
Each entry below lists one item and its recorded pIC50 value.

- Compound: "CC(=O)N(C)[C@H]1CCN(c2nc(OC[C@@]34CCCN3C[C@H](F)C4)nc3c(F)c(-c4ccc(F)c5sc(N)c(C#N)c45)c(C(F)(F)F)cc23)C1"
  Subject of test: "Avi-KRAS G12D (1-169) GppNHp/RAF1 RBD-3xFLAG (52-151) (Homo sapiens, UniProt P01116, G12D)"
  pIC50: "5.00 to 6.00"
- Compound: "N#Cc1c(N)sc2c(F)ccc(-c3c(C(F)(F)F)cc4c(N5CCC(O)CC5)nc(OC[C@@]56CCCN5C[C@H](F)C6)nc4c3F)c12"
  Subject of test: "Avi-KRAS G12D (1-169) GppNHp/RAF1 RBD-3xFLAG (52-151) (Homo sapiens, UniProt P01116, G12D)"
  pIC50: "6.00 to 7.00"
- Compound: "CN(c1nc(OC[C@@]23CCCN2C[C@H](F)C3)nc2c(F)c(-c3ccc(F)c4sc(N)c(C#N)c34)c(C(F)(F)F)cc12)C1CCC1"
  Subject of test: "Avi-KRAS G12D (1-169) GppNHp/RAF1 RBD-3xFLAG (52-151) (Homo sapiens, UniProt P01116, G12D)"
  pIC50: "6.00 to 7.00"
- Compound: "CC1(O)COCCN(c2nc(OC[C@@]34CCCN3C[C@H](F)C4)nc3c(F)c(-c4ccc(F)c5sc(N)c(C#N)c45)c(C(F)(F)F)cc23)C1 (stereo partly drawn)"
  Subject of test: "Avi-KRAS G12D (1-169) GppNHp/RAF1 RBD-3xFLAG (52-151) (Homo sapiens, UniProt P01116, G12D)"
  pIC50: "6.00 to 7.00"
- Compound: "CN(c1nc(OC[C@@]23CCCN2C[C@H](F)C3)nc2c(F)c(-c3ccc(F)c4sc(N)c(C#N)c34)c(C(F)(F)F)cc12)[C@H]1C[C@@](C)(O)C1"
  Subject of test: "Avi-KRAS G12D (1-169) GppNHp/RAF1 RBD-3xFLAG (52-151) (Homo sapiens, UniProt P01116, G12D)"
  pIC50: "6.00 to 7.00"

Consider the additional compound presented here.
Given "CN(CCS(C)(=O)=O)c1nc(OC[C@@]23CCCN2C[C@H](F)C3)nc2c(F)c(-c3ccc(F)c4sc(N)c(C#N)c34)c(C(F)(F)F)cc12" , respond with its pIC50.
6.00 to 7.00

* * *

molecular target: Avi-KRAS WT (1-169) GppNHp/RAF1 RBD-3xFLAG (52-151) (Homo sapiens, UniProt P01116); construct: Avi-KRAS WT (1-169); experiment: Raf1-KRAS WT-GppNHP disruption HTRF assay (Biological Example 1); type: binding; conditions: KRAS WT, GppNHp-loaded; Table 11
Sequence (P01116 1-169 isoform P01116-2): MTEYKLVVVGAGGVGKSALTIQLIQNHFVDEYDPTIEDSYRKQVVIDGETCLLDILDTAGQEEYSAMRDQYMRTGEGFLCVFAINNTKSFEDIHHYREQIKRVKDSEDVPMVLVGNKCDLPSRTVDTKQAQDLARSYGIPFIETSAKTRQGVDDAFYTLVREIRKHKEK
Measurement kind: IC50

Use these answered entries as a reference point.
- Compound: "CN1CCN(c2nc(OC[C@@]34CCCN3C[C@H](F)C4)nc3c(F)c(-c4ccc(F)c5sc(N)c(C#N)c45)c(C(F)(F)F)cc23)CC1=O [Compound 257]"
  IC50: "100 to 1000 nM"
- Compound: "CC(=O)N1C[C@@H](N(C)c2nc(OC[C@@]34CCCN3C[C@H](F)C4)nc3c(F)c(-c4ccc(F)c5sc(N)c(C#N)c45)c(C(F)(F)F)cc23)C[C@H]1C [Compound 277]"
  IC50: "100 to 1000 nM"
- Compound: "Nc1nc2c(-c3c(C(F)(F)F)cc4c(N[C@H]5CC[C@@H](O)C5)nc(OCC56CCCN5CCC6)nc4c3F)ccc(F)c2s1 (atropisomer, axis not shown) [Compound 60]"
  IC50: "1000 to 10000 nM"
- Compound: "CN(c1nc(OC[C@@]23CCCN2C[C@H](F)C3)nc2c(F)c(-c3ccc(F)c4sc(N)c(C#N)c34)c(C(F)(F)F)cc12)[C@H]1C[C@@H](O)C1 [Compound 19]"
  IC50: "< 100 nM"
- Compound: "CN(c1nc(OC[C@@H]2CC3(CC3)CN2C)nc2c(F)c(-c3ccc(F)c4sc(N)c(C#N)c34)c(C(F)(F)F)cc12)C1CC(O)C1 (stereo partly drawn) [Compound 41]"
  IC50: "100 to 1000 nM"

In the following, a different compound is considered.
# return recorded IC50 for entry CN(CC1(CO)CC1)c1nc(OC[C@@]23CCCN2C[C@H](F)C3)nc2c(F)c(-c3ccc(F)c4sc(N)c(C#N)c34)c(C(F)(F)F)cc12 [Compound 83]
100 to 1000 nM
